Listed here are compounds together with their documented ED50.
Tested on: Streptococcus pyogenes
Experiment: Experimental bacterial infection in mice, ED50
Type: in vivo
Conditions: Streptococcus pyogenes, po, two doses, dose protecting 50% of animals, read-out: Oral ED50
Protocol: The new derivatives of this invention have also shown in vivo antimicrobial activity against experimental bacterial infections. When two doses of test compound were administered to mice in experimental infections, the activity observed was measured as an EDso value [effective dose in mg/kg to protect 50% of the test animals: see Warren Wick, et al., J. Bacteriol. 81, 233-235 (1961)].

Worked cases, ED50 given:
{"columns": ["COMPOUND", "RESULT"],
 "data": [
  ["CCCN[C@@H]1[C@H](C)[C@@H](O)[C@](C)(O)[C@@H](CC)OC(=O)[C@H](C)[C@@H](O[C@H]2C[C@@](C)(OC)[C@@H](O)[C@H](C)O2)[C@H](C)[C@@H](O[C@@H]2O[C@H](C)C[C@H](N(C)C)[C@H]2O)[C@](C)(O)C[C@H]1C", "3.3 mg/kg"],
  ["CC[C@H]1OC(=O)[C@H](C)[C@@H](O[C@H]2C[C@@](C)(OC)[C@@H](O)[C@H](C)O2)[C@H](C)[C@@H](O[C@@H]2O[C@H](C)C[C@H](N(C)C)[C@H]2O)[C@](C)(O)C[C@@H](C)[C@H](NCCCOC)[C@H](C)[C@@H](O)[C@]1(C)O", "13.5 mg/kg"]
]}

Next up:
Entry CC[C@H]1OC(=O)[C@H](C)[C@@H](O[C@H]2C[C@@](C)(OC)[C@@H](O)[C@H](C)O2)[C@H](C)[C@@H](O[C@@H]2O[C@H](C)C[C@H](N(C)C)[C@H]2O)[C@](C)(O)C[C@@H](C)[C@H](NCC2CC=CCC2)[C@H](C)[C@@H](O)[C@]1(C)O (stereo partly drawn) , system Streptococcus pyogenes: what ED50 was measured?
14.9 mg/kg

====

Test system: Staphylococcus aureus X400
Assay: MIC, standard agar-dilution assay
Format: cell-based
Details: Staphylococcus aureus X400, Methicillin-resistant strain, inducibly-resistant to erythromycin; read-out: MIC
Listed here are molecules together with their documented MIC.
# output: bare number, implied unit µg/mL

Worked cases, MIC given:
{"columns": ["COMPOUND", "MIC [µg/mL]"],
 "data": [
  ["CC[C@H]1OC(=O)[C@H](C)[C@@H](O[C@H]2C[C@@](C)(OC)[C@@H](O)[C@H](C)O2)[C@H](C)[C@@H](O[C@@H]2O[C@H](C)C[C@H](N(C)C)[C@H]2O)[C@](C)(O)C[C@@H](C)[C@H](N(C)C)[C@H](C)[C@@H](O)[C@]1(C)O", 64],
  ["CCCCC/C=C\\CCCN[C@@H]1[C@H](C)[C@@H](O)[C@](C)(O)[C@@H](CC)OC(=O)[C@H](C)[C@@H](O[C@H]2C[C@@](C)(OC)[C@@H](O)[C@H](C)O2)[C@H](C)[C@@H](O[C@@H]2O[C@H](C)C[C@H](N(C)C)[C@H]2O)[C@](C)(O)C[C@H]1C", 8],
  ["CC[C@H]1OC(=O)[C@H](C)[C@@H](O[C@H]2C[C@@](C)(OC)[C@@H](O)[C@H](C)O2)[C@H](C)[C@@H](O[C@@H]2O[C@H](C)C[C@H](N(C)C)[C@H]2O)[C@](C)(O)C[C@@H](C)[C@H](NCC2CCCCCCC2)[C@H](C)[C@@H](O)[C@]1(C)O", 64]
]}

Next up:
For the molecule "CCCCCCCCCCN[C@@H]1[C@H](C)[C@@H](O)[C@](C)(O)[C@@H](CC)OC(=O)[C@H](C)[C@@H](O[C@H]2C[C@@](C)(OC)[C@@H](O)[C@H](C)O2)[C@H](C)[C@@H](O[C@@H]2O[C@H](C)C[C@H](N(C)C)[C@H]2O)[C@](C)(O)C[C@H]1C" , what MIC is on record?
8

====

Listed here are compounds together with their documented MIC.
Tested on: Staphylococcus aureus S13E
Assay: MIC, standard agar-dilution assay
Type: cell-based
# output: bare number, implied unit µg/mL

Worked cases, MIC given:
{"columns": ["COMPOUND", "MEASURED NUMBER"],
 "data": [
  ["CC[C@H]1OC(=O)[C@H](C)[C@@H](O[C@H]2C[C@@](C)(OC)[C@@H](O)[C@H](C)O2)[C@H](C)[C@@H](O[C@@H]2O[C@H](C)C[C@H](N(C)C)[C@H]2O)[C@](C)(O)C[C@@H](C)[C@H](NC)[C@H](C)[C@@H](O)[C@]1(C)O", 0.125],
  ["CC[C@H]1OC(=O)[C@H](C)[C@@H](O[C@H]2C[C@@](C)(OC)[C@@H](O)[C@H](C)O2)[C@H](C)[C@@H](O[C@@H]2O[C@H](C)C[C@H](N(C)C)[C@H]2O)[C@](C)(O)C[C@@H](C)[C@H](NCCC(C)CCCC(C)(C)OC)[C@H](C)[C@@H](O)[C@]1(C)O (stereo partly shown)", 0.25],
  ["CC[C@H]1OC(=O)[C@H](C)[C@@H](O[C@H]2C[C@@](C)(OC)[C@@H](O)[C@H](C)O2)[C@H](C)[C@@H](O[C@@H]2O[C@H](C)C[C@H](N(C)C)[C@H]2O)[C@](C)(O)C[C@@H](C)[C@H](NCCCOC)[C@H](C)[C@@H](O)[C@]1(C)O", 2]
]}

For the compound "CC[C@H]1OC(=O)[C@H](C)[C@@H](O[C@H]2C[C@@](C)(OC)[C@@H](O)[C@H](C)O2)[C@H](C)[C@@H](O[C@@H]2O[C@H](C)C[C@H](N(C)C)[C@H]2O)[C@](C)(O)C[C@@H](C)[C@H]2[C@H](C)[C@@H](OCN2Cc2ccccc2)[C@]1(C)O" , what MIC is on record?
1

For the compound "CC[C@H]1OC(=O)[C@H](C)[C@@H](O[C@H]2C[C@@](C)(OC)[C@@H](O)[C@H](C)O2)[C@H](C)[C@@H](O[C@@H]2O[C@H](C)C[C@H](N(C)C)[C@H]2O)[C@](C)(O)C[C@@H](C)[C@H](NCCCc2ccccc2)[C@H](C)[C@@H](O)[C@]1(C)O" , what MIC is on record?
0.5

For the compound "CC[C@H]1OC(=O)[C@H](C)[C@@H](O[C@H]2C[C@@](C)(OC)[C@@H](O)[C@H](C)O2)[C@H](C)[C@@H](O[C@@H]2O[C@H](C)C[C@H](N(C)C)[C@H]2O)[C@](C)(O)C[C@@H](C)[C@H](NCC#Cc2ccccc2)[C@H](C)[C@@H](O)[C@]1(C)O" , what MIC is on record?
0.5

For the compound "CCCN1CO[C@@H]2[C@@H](C)[C@@H]1[C@H](C)C[C@@](C)(O)[C@H](O[C@@H]1O[C@H](C)C[C@H](N(C)C)[C@H]1O)[C@@H](C)[C@H](O[C@H]1C[C@@](C)(OC)[C@@H](O)[C@H](C)O1)[C@@H](C)C(=O)O[C@H](CC)[C@@]2(C)O" , what MIC is on record?
0.125

====

Test system: Streptococcus pneumoniae
Test: Experimental bacterial infection in mice, ED50
Assay type: in vivo
Details: Streptococcus pneumoniae, po, two doses, dose protecting 50% of animals, read-out: Oral ED50
Listed here are compounds together with their documented ED50.
# output: bare number, implied unit mg/kg

{"columns": ["COMPOUND", "MEASURED NUMBER"],
 "data": [
  ["CCCCN[C@@H]1[C@H](C)[C@@H](O)[C@](C)(O)[C@@H](CC)OC(=O)[C@H](C)[C@@H](O[C@H]2C[C@@](C)(OC)[C@@H](O)[C@H](C)O2)[C@H](C)[C@@H](O[C@@H]2O[C@H](C)C[C@H](N(C)C)[C@H]2O)[C@](C)(O)C[C@H]1C [Compound 4, 9-Deoxo-9-(n-butylamino)erythromycin]", 12.5]
]}

Next up:
For the compound CC[C@H]1OC(=O)[C@H](C)[C@@H](O[C@H]2C[C@@](C)(OC)[C@@H](O)[C@H](C)O2)[C@H](C)[C@@H](O[C@@H]2O[C@H](C)C[C@H](N(C)C)[C@H]2O)[C@](C)(O)C[C@@H](C)[C@H]2[C@H](C)[C@@H](OCN2C(C)C)[C@]1(C)O [Compound 58] , what ED50 is on record?
5.7

====

System: Streptococcus pneumoniae
Assay: Experimental bacterial infection in mice, ED50
Assay type: in vivo
Conditions: Streptococcus pneumoniae, po, two doses, dose protecting 50% of animals, read-out: Oral ED50
Listed here are compounds together with their documented ED50.
# output: bare number, implied unit mg/kg

Worked cases, ED50 given:
{"columns": ["COMPOUND", "EXPERIMENTAL SYSTEM", "ED50, mg/kg"],
 "data": [
  ["CCCN[C@@H]1[C@H](C)[C@@H](O)[C@](C)(O)[C@@H](CC)OC(=O)[C@H](C)[C@@H](O[C@H]2C[C@@](C)(OC)[C@@H](O)[C@H](C)O2)[C@H](C)[C@@H](O[C@@H]2O[C@H](C)C[C@H](N(C)C)[C@H]2O)[C@](C)(O)C[C@H]1C", "Streptococcus pneumoniae", 7.2],
  ["CC[C@H]1OC(=O)[C@H](C)[C@@H](O[C@H]2C[C@@](C)(OC)[C@@H](O)[C@H](C)O2)[C@H](C)[C@@H](O[C@@H]2O[C@H](C)C[C@H](N(C)C)[C@H]2O)[C@](C)(O)C[C@@H](C)[C@H](NCC2CC=CCC2)[C@H](C)[C@@H](O)[C@]1(C)O (stereo partly drawn)", "Streptococcus pneumoniae", 8.7]
]}

Next up:
For the compound "CC[C@H]1OC(=O)[C@H](C)[C@@H](O[C@H]2C[C@@](C)(OC)[C@@H](O)[C@H](C)O2)[C@H](C)[C@@H](O[C@@H]2O[C@H](C)C[C@H](N(C)C)[C@H]2O)[C@](C)(O)C[C@@H](C)[C@H](N2CCCCC2)[C@H](C)[C@@H](O)[C@]1(C)O" , what ED50 is on record?
20.6
